Data origin, for the record: patent US20110158985A1

target: F protein of RSV (Long strain) (RSV (Long strain), UniProt P12568 26-574); assay: cell-based or functional assay
Sequence (P12568 26-574): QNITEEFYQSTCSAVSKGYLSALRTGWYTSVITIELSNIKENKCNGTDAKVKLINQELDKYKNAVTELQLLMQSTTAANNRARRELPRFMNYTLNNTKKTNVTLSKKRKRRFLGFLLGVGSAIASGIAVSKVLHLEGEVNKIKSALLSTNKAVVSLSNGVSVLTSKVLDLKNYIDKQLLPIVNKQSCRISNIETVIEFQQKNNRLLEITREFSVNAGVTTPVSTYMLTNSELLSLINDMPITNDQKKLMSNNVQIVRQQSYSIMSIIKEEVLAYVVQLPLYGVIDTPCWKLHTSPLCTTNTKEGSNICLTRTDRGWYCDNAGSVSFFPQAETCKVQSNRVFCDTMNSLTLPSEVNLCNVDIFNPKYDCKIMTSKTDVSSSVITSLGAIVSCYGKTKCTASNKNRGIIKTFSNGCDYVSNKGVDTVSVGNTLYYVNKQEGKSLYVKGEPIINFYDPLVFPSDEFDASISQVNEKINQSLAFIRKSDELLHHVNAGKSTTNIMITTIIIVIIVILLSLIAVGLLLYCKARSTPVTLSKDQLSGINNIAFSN
Below: a set of entries, each annotated with reported Mean IC50 (Control).
Please answer using a numeric value trailed by its unit.

{"columns": ["binder", "Mean IC50 (Control)"],
 "data": [
  ["P12f2 IgG (antibody, V domains shown) VH: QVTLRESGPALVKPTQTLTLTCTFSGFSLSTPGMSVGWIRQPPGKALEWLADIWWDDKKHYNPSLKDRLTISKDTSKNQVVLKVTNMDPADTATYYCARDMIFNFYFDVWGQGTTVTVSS VL: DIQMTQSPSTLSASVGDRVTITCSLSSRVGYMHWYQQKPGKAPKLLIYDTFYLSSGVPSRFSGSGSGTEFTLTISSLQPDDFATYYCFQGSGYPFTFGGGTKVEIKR", "0.0223 µg/mL"]
]}

# context switch: different binder, same Mean IC50 (Control)
*Q* # return recorded Mean IC50 (Control) for input A17d4(1) Fab (Fab, V domains shown) VH: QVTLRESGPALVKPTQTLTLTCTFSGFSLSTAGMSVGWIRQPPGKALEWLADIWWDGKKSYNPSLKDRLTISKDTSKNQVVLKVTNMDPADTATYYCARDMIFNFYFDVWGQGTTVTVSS VL: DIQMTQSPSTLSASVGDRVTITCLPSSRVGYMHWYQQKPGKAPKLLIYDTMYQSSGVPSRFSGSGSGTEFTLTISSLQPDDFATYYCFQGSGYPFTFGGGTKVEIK
*A* 0.0171 µg/mL
